target: Transient receptor potential vanilloid member 1 (TRPV1) (Rattus norvegicus, UniProt O35433, N628A); construct: Rat TRPV1 cDNA (NM_031982), N628A; assay: two-electrode voltage clamp in Xenopus oocytes expressing mutant TRPV1, inhibition of capsaicin-induced current (reduced maximum inhibition); conditions: read-out: Hill Equation / y = Vmin + (Vmax - Vmin) × x^n/(k^n x^n) / Value
Sequence (O35433 whole entry N628A): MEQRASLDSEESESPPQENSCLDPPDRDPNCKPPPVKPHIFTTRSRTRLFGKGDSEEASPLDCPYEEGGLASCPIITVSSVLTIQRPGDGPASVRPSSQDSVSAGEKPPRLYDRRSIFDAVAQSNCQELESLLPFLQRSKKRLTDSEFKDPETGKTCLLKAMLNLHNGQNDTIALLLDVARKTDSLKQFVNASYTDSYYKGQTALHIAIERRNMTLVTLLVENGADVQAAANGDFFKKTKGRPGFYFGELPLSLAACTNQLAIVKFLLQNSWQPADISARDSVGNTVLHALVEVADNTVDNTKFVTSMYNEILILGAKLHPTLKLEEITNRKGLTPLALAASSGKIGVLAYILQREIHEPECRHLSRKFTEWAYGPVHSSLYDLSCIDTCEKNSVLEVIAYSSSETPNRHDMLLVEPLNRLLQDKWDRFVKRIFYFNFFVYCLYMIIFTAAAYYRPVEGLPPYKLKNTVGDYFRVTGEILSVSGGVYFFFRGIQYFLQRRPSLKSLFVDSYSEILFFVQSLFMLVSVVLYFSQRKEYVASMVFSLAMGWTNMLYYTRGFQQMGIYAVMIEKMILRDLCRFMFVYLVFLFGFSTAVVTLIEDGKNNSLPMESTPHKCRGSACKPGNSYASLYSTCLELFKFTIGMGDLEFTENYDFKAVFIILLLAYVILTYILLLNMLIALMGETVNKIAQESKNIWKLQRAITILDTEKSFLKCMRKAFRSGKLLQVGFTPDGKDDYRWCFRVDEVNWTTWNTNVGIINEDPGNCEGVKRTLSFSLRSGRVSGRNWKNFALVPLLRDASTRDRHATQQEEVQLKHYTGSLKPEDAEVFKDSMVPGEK

compound	IC50, µM
C[C@@H]1O[C@@H](O[C@H]2[C@H](Oc3cc(O)c4c(c3)O[C@H](c3ccc(O)cc3)CC4=O)O[C@H](CO)[C@@H](O)[C@@H]2O)[C@H](O)[C@H](O)[C@H]1O [naringin]	24.2
